- assayed system: α4β7 integrin interaction with MadCAM-1 (RPMI8866 cells) (Homo sapiens, UniProt P13612+P26010)
- Construct: α4β7 integrin expressing cells; endogenous in cells
- Sequence (P13612 34-1032): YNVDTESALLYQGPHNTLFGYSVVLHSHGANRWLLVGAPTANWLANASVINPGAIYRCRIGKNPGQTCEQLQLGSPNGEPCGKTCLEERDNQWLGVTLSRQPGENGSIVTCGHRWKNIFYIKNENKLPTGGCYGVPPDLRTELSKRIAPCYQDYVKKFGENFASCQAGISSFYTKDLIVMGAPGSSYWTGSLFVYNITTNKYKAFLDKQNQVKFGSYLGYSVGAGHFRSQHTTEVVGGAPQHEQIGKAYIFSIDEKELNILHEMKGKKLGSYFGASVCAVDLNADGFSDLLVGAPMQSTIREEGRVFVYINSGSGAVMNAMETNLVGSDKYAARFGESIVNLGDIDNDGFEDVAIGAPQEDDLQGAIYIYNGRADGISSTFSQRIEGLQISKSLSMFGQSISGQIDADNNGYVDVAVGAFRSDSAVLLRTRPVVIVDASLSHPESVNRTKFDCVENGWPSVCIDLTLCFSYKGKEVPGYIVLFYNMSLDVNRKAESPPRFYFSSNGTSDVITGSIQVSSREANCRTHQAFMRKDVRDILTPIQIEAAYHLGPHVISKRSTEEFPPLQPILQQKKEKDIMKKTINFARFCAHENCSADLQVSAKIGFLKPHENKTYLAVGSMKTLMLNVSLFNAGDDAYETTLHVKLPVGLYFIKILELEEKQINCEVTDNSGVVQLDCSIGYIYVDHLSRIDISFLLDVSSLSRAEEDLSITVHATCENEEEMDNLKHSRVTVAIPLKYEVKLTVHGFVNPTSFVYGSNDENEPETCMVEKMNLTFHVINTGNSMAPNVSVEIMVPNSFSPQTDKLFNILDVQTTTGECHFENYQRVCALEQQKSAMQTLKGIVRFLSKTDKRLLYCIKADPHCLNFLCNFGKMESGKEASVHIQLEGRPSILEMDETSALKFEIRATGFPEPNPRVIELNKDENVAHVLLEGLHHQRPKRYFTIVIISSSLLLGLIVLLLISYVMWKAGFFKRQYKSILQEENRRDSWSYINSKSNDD
- Sequence (P26010 20-798): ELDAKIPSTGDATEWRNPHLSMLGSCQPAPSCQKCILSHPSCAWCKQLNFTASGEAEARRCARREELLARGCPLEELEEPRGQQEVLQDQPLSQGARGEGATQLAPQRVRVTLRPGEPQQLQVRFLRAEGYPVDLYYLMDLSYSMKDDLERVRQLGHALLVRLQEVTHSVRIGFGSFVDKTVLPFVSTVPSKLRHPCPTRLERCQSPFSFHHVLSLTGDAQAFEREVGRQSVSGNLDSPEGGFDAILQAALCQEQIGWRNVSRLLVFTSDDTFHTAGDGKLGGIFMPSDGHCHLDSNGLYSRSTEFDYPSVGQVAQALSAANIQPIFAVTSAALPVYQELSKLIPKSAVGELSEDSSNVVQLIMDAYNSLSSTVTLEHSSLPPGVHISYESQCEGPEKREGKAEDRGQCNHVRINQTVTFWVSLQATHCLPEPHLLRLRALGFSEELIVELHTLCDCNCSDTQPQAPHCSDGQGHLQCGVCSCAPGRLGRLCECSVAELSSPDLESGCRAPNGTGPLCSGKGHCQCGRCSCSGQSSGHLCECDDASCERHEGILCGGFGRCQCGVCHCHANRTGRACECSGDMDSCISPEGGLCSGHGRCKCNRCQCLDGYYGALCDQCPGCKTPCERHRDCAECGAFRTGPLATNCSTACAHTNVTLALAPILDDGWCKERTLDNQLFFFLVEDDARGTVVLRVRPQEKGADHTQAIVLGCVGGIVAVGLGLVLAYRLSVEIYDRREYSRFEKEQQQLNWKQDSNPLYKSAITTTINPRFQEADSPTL
- test name: α4β7 Integrin Cell Capture Assay
- stated conditions: capture of α4β7 integrin expressing RPMI8866 cells on recombinant MadCAM-1 extracellular domain-coated plate; 0.5 mM MnCl2
recorded metric: EC50 (nM)

INSERT INTO results (mol_smiles, recorded_metric, unit, quantitative_result) VALUES
  ('Cc1cnc(-c2ccc(C[C@H](NC(=O)c3c(F)cc(N4CCOC[C@@H]4C(F)(F)F)cc3F)C(=O)O)c3c2COC3)nc1C', 'EC50', 'nM', 94.9);

(I) CC[C@@H](Nc1cc(F)c(C(=O)N[C@@H](Cc2ccc(-c3c(C(F)(F)F)cc(C)n(C)c3=O)c3c2COC3)C(=O)O)c(F)c1)C(F)(F)F
(II) Cc1nc(-c2ccc(C[C@H](NC(=O)c3c(F)cc(N4CCOC[C@@H]4C(F)(F)F)cc3F)C(=O)O)c3c2CN(C)C3)c(=O)n(C)c1C
(III) O=C(N[C@@H](Cc1ccc(-c2cc(F)c(F)cc2OC2CC2)c2c1CCCO2)C(=O)O)c1c(Cl)cccc1Cl
(IV) Cc1cc(C(F)(F)F)c(-c2ccc(C[C@H](NC(=O)c3c(F)cc(N[C@H](C)C(F)(F)F)cc3F)C(=O)O)c3c2COC3)c(=O)n1C
(V) CC[C@@H](Nc1cc(F)c(C(=O)N[C@@H](Cc2ccc(-c3c(C)n(C)c(=O)n(C)c3=O)c3c2OCCO3)C(=O)O)c(F)c1)C(F)(F)F
Arrange by EC50, high to low. A complete answer lists every label in the requested sequence.
III, II, V, I, IV
